Provenance of the data: patent EP1082319B1

Provide the recorded IC50 for the entries that follow.
Molecular target: estrogen receptor (Homo sapiens, UniProt P03372)
Sequence (P03372 1-595): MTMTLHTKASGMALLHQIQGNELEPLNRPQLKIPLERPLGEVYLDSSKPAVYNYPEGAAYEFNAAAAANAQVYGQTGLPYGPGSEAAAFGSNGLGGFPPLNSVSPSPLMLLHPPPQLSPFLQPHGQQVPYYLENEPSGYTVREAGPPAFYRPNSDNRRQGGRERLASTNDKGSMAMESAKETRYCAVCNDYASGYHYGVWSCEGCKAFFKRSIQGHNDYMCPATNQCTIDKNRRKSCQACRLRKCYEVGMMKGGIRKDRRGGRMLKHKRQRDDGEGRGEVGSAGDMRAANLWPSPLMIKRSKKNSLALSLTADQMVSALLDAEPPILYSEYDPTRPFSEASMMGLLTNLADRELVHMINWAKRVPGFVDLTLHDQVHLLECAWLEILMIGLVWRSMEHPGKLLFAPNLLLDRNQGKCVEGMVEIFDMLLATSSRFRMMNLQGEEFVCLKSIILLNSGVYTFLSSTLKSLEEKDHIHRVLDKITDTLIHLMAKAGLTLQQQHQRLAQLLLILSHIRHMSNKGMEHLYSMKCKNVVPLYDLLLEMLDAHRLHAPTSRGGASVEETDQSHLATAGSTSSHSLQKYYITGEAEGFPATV
Give the quantity in nM, number only.

Measured IC50 of COc1ccc2c(c1)Cc1c-2n(Cc2ccc(OCCN3CCCCC3)cc2)c2ccc(O)cc12 : 430

Measured IC50 of COc1ccc2c(c1)CCc1c-2n(Cc2ccc(OCCN3CCCCCC3)cc2)c2ccc(O)cc12 : 190

Measured IC50 of COc1ccc2c(c1)CCc1c-2n(Cc2ccc(OCCN3CCCCC3)cc2)c2ccc(O)cc12 : 110
